# System: KM-20L2
# methodNotes: NCI tumour cell line growth inhibition, 48 h
The source made the active and inactive calls. Rule as the data show it: active = GI50 up to about 1.1 µM and inactive = higher. Non-standard residues stand in square brackets, D forms with d. Residues, ends and D or L forms follow the SMILES beside them. ξ: configuration not given here. *: point of attachment. NMeF = CN[C@@H](Cc1ccccc1)C(=O)O; ξNMeV = CNC(C(=O)O)C(C)C; Boc = CC(C)(C)OC(=O)*; OBn = c1ccc(CO*)cc1
resultType: GI50

{"molecule": "Cc1cccc2c1Sc1ccccc1C2NC(=O)CN(C)C (stereo unspecified)", "GI50": "18.7 µM (inactive)"}
{"molecule": "COC(=O)C1=C2CCC(=O)[C@@]2(C)C(OC(C)=O)C=CC1 (stereo partly specified)", "GI50": "> 100 µM (inactive)"}
{"molecule": "COc1cc(/C=C/C(=O)Oc2ccc(NC(C)=O)cc2)ccc1C(=O)OCc1ccccc1", "GI50": "> 100 µM (inactive)"}
{"molecule": "Cc1ccc(C2=C(c3ccccc3)C(Br)(c3ccc(C)cc3)C(c3ccccc3)=C2c2ccc(C)cc2)cc1", "GI50": "> 100 µM (inactive)"}
{"molecule": "Cn1c(=O)c2c(ncn2CCCCn2ccnc2[N+](=O)[O-])n(C)c1=O", "GI50": "> 100 µM (inactive)"}

Recorded GI50 for Cc1ccccc1NC(=O)C(=O)C1CN(c2ccccc2)N=C1N (stereo unspecified) , please?
> 100 µM (inactive)

Value lookup for GI50; key = COC(=O)C(C(=O)C(=O)Nc1ccc([N+](=O)[O-])cc1)c1nc2ccc([N+](=O)[O-])cc2nc1O (stereo unspecified)
> 100 µM (inactive)

Please report the recorded GI50 for CN(C)c1ccc(/C=C2\Cc3ccccc3C2=O)cc1Br .
81.8 µM (inactive)

For the molecule shown here, CC(=O)NC1=C(NCC(C)(C)C)C(=O)c2ccccc2C1=O , give the reported GI50.
57.8 µM (inactive)

What does the record list as GI50 for C=C/C=C/NC(=O)OCc1ccccc1 ?
> 100 µM (inactive)

Requested read-out: GI50. Entry: Clc1cc2n[se]nc2cc1Cl
> 100 µM (inactive)

Fill blank: measured GI50 of the molecule COc1nc(O)c(N)c(NC2OC(CO)C(O)C(O)C2O)n1 (stereo unspecified) is ____.
> 100 µM (inactive)

Find the recorded GI50 belonging to Cc1ccc(S(=O)(=O)NC(=O)Nc2nc(Cl)cc(Cl)n2)cc1 and report it.
> 100 µM (inactive)

Any idea what its GI50 is? The molecule is CCOC(=O)C1=C(Nc2ccccc2)OC/C1=N\NC(=O)Cc1ccccc1
> 50 µM (inactive)

Query: GI50; subject: [O-][n+]1ccccc1S
1.04 µM (active)

Value lookup for GI50; key = CCC1=CCN(c2cc(C)ccn2)OC1c1ccc(OC)cc1 (stereo unspecified)
30.3 µM (inactive)

Name the reported GI50 value associated with the molecule Cn1nc(-c2ccccc2)c(N=[N+]=[N-])cc1=O
> 100 µM (inactive)

Could you tell me which GI50 is on file for CC(C)C(C(=O)N1CCC[C@@H]1C(=O)OCc1ccccc1)N(C)C(=O)C(C(C)C)N(C)C(=O)[C@H](Cc1ccccc1)N(C)C(=O)[C@H](NC(=O)OC(C)(C)C)C(C)C (stereo partly specified) (Boc-[dV][NMeF][ξNMeV][ξNMeV][dP]-OBn) ?
> 100 µM (inactive)

Given the entry CC(=O)OC(C)(C)C[N+](=O)[O-] , report its measured GI50.
> 100 µM (inactive)

Look up GI50 for this molecule: CSc1nc(NC(=O)O)c(N(C(C)=O)C(=O)O)c(=O)n1C
> 100 µM (inactive)

May I ask what GI50 has been recorded for COC(=O)OCC1OC(N2C(=O)NC(=O)C(Br)C2N=[N+]=[N-])CC1OC(=O)OC (stereo unspecified) ?
> 100 µM (inactive)

----------
# System: COLO 205
# methodNotes: NCI tumour cell line growth inhibition, 48 h
The source made the active and inactive calls. Rule as the data show it: active = GI50 up to about 1.1 µM and inactive = higher.
Respond with a class label; see y (active), n (inactive)

Would you please look over these solved cases?
{"compound": "COC(=O)c1c[nH]c2c1-c1cc(C(=O)OCc3ccccc3)n(S(=O)(=O)c3ccc(C)cc3)c1C(=O)C2=O", "targetSystem": "COLO 205", "className": "y"}
{"compound": "COc1ccc2nc3cc(Cl)ccc3c(Sc3ccc([N+](=O)[O-])cc3C)c2c1", "targetSystem": "COLO 205", "className": "n"}
{"compound": "Cc1nc2ccccc2c(=O)n1-c1ccccc1F", "targetSystem": "COLO 205", "className": "n"}
{"compound": "Brc1ccc(-c2ccc(-c3ccc(-c4ccc(Br)s4)s3)s2)s1", "targetSystem": "COLO 205", "className": "n"}

Now examine the next entry.
Could you kindly confirm the outcome this assay logged for Cc1cccc2c1Sc1ccccc1C2NC(=O)CN(C)C (stereo not given) ?
n

----------
# Test system: SN12C
# methodNotes: NCI tumour cell line growth inhibition, 48 h
Activity calls are given as the source filed them. No stated cut-off is given here; in the data, active = GI50 up to about 1.1 µM and inactive = higher.
Property: GI50; scope: individual molecules

The examples below pair each entry with its known result.
{"molecule": "Nc1ccc(C(=O)O)c2[nH]c3ccccc3c(=O)c12", "targetSystem": "SN12C", "GI50": "> 100 µM (inactive)"}
{"molecule": "CC1CC2=Nc3ccccc3NC(c3ccccc3)C2=C(O)O1 (stereo not given)", "targetSystem": "SN12C", "GI50": "> 100 µM (inactive)"}
{"molecule": "CSc1nc(NC(=O)O)c(N(C(C)=O)C(=O)O)c(=O)n1C", "targetSystem": "SN12C", "GI50": "> 100 µM (inactive)"}
{"molecule": "CC[C@@]1(O)C(=O)OCc2c1cc1n(c2=O)Cc2c-1nc1ccccc1c2/C=N\\NC(=O)C(N)=O", "targetSystem": "SN12C", "GI50": "0.172 µM (active)"}

Field request: GI50 | item: CCCc1c(C(=O)OCC)[nH]c(-c2ccc(-c3[nH]c(C(=O)OCC)c(CCC)c3C(=O)OCC)o2)c1C(=O)OCC
> 100 µM (inactive)

----------
# System: NCI-H460
# methodNotes: NCI tumour cell line growth inhibition, 48 h
Calls of active or inactive are those of the source. Cut-off read from the data, not from the text of the source: active = GI50 up to about 1.1 µM and inactive = higher.
GI50: recorded values

{"compound": "COc1cc(/C=C/C(=O)Oc2ccc(NC(C)=O)cc2)ccc1C(=O)OCc1ccccc1", "GI50": "> 73.1 µM (inactive)"}

Query (compound): Cc1ccc2[nH]c3c(c2c1)C1CCC(C(C)(C)C)CC1C1C(=O)N(c2ccc(Oc4ccccc4)cc2)C(=O)C31 (stereo unspecified) ; field requested: GI50
16 µM (inactive)

Sample CC(C)CC(NC(=O)C(O)C(N)Cc1ccccc1)C(=O)O (stereo unspecified) — what was its GI50?
> 100 µM (inactive)

Entry NCCc1nc(-c2nc(C(=O)O)cs2)cs1 : reported GI50 = ?
> 100 µM (inactive)

Can you look up the measured GI50 of CN(c1nc(=[N+](C)C)ss1)C1CCCCC1 for me?
13.3 µM (inactive)

Requested read-out: GI50. Entry: C=CCCCCCC(O)C(O)C/C=C\C/C=C\CC (stereo unspecified)
13.5 µM (inactive)

Which GI50 value belongs to Cc1cc(Cl)ccc1/N=C1/NC(=O)C(CC(=O)Nc2cccc(C)c2C)S1 (stereo unspecified) ?
31.3 µM (inactive)

----------
# Test system: HCT-116
# methodNotes: NCI tumour cell line growth inhibition, 48 h
Active and inactive are the calls of the source. No stated cut-off is given here; in the data, active = GI50 up to about 1.1 µM and inactive = higher.
resultType: GI50

The following compounds have reported results that may help.
{"compound": "COC(=O)/C1=C/c2c([nH]c3ccccc23)/C(C(=O)OC)=C\\c2c1[nH]c1ccccc21", "resultType": "GI50", "recordedMeasurement": "14.2 µM (inactive)"}
{"compound": "COc1ccc(C(=O)c2[nH]c(Nc3ccc(Cl)cc3)c(C(=S)Nc3ccccc3)c2N)cc1", "resultType": "GI50", "recordedMeasurement": "60.7 µM (inactive)"}
{"compound": "O=C1/C(=C\\c2ccc(F)cc2)CCOc2c1ccc1ccccc21", "resultType": "GI50", "recordedMeasurement": "3.49 µM (inactive)"}
{"compound": "Nc1nc2c(ncn2C2OC(CO)C(O)C2O)c(=O)o1 (stereo unspecified)", "resultType": "GI50", "recordedMeasurement": "> 82.2 µM (inactive)"}
{"compound": "O=C1c2ccccc2C(=O)N1C/C=N/NS(=O)(=O)c1ccc(F)cc1", "resultType": "GI50", "recordedMeasurement": "> 100 µM (inactive)"}

Could you now look at the following compound, please?
Tell me the measured GI50 of Cn1nc(-c2ccccc2)c(N=[N+]=[N-])cc1=O , please.
> 100 µM (inactive)

----------
# Test system: TK-10
# methodNotes: NCI tumour cell line growth inhibition, 48 h
Activity calls are given as the source filed them. No stated cut-off is given here; in the data, active = GI50 up to about 1.1 µM and inactive = higher.
Log the outcome using a class from Yes for active, No for inactive

Some entries whose results are on file:
{"compound": "CC12CC(c3ccccc3O1)C(C(=O)Nc1nccs1)C(=O)N2 (configuration not stated)", "className": "No"}
{"compound": "Cc1ccc(S(=O)(=O)N2CCC3(C(/C=C/c4ccccc4)=Nc4ccccc43)C2c2ccccc2)cc1 (configuration not stated)", "className": "No"}
{"compound": "CC(=O)O[C@H]1C[C@H](O[C@H]2[C@@H](O)C[C@H](O[C@H]3[C@@H](O)C[C@H](O[C@H]4CC[C@@]5(C)[C@H](CC[C@@H]6[C@@H]5CC[C@]5(C)[C@@H](C7=CC(=O)OC7)CC[C@]65O)C4)O[C@@H]3C)O[C@@H]2C)O[C@H](C)[C@H]1O[C@@H]1O[C@H](CO)[C@@H](O)[C@H](O)[C@H]1O", "className": "Yes"}

# fetch the recorded call for COc1ccc(/N=[N+](\[O-])c2ccc(OC)cc2)cc1 here
No

I would be grateful if you could indicate the recorded call for COC(=O)C1[C@@H](C(=O)OC)C(=O)O[C@H]1c1cc(OC)c(OC)c(OC)c1 (some centres not stated) .
No

Tell me the recorded outcome of this test for CCCCC1Cc2cc(O)ccc2-c2nc3cc(O)ccc3n21.CCCCC1Cc2cc(O)ccc2-c2nc3ccc(O)cc3n21 (configuration not stated) .
No

I would be grateful if you could indicate the recorded call for CC(=O)c1sc2c(c1OC(=O)c1ccc(Cl)cc1Cl)c(=O)n(-c1ccccc1)c(=S)n2-c1ccccc1 .
No

Recorded values, source ChEMBL document CHEMBL1201862.
